Value source: PubChem BioAssay (NCI)

system: A549 NSCLC; experiment: NCI tumour cell line growth inhibition, 48 h; in the data active means GI50 below about 0.43 µM; inactive means the rest
Pick one and only one: true (1) (active), false (0) (inactive)

Cc1ccc(S(=O)(=O)N2CCc3ccc(O)c4c3C2Cc2cc(Cl)ccc2-4)cc1 (centres undefined): false (0)

input: For this compound, state the assay outcome: C=C(C)[C@@H]1CC[C@]2(C)[C@H](CC[C@@H]3[C@H]4[C@H]5OC[C@@]4(CCC5(C)C)CC[C@]32C)[C@@]1(C)CCCN
output: false (0)

input: What was the test verdict on N#Cc1ccnc(N2C(=O)CC[C@H]2C(=O)N(c2cncc(F)c2)[C@H](C(=O)NC2CC(F)(F)C2)c2ccccc2Cl)c1 ?
output: false (0)

input: Just curious, what result did COc1ccccc1CNCCCN1C(=O)c2ccc3c4c(ccc(c24)C1=O)C(=O)N(CCCNCCCN)C3=O get here?
output: true (1)

* * *

Below, each entry is listed with its recorded TGI.
system: HOP-92 NSCLC; assay: NCI tumour cell line growth inhibition, 48 h

As a guide, the following entries are already answered.
CCOC(=O)NC(NC(C)CC)(C(F)(F)F)C(F)(F)F (centres undefined): > 100 µM
O=c1cnn2c(n1)sc1ccc3ccccc3c12: > 100 µM
CC(NC(=O)OC(C)(C)C)C(=O)C(N)=O (centres undefined): > 100 µM

input: Quick check: TGI on HOP-92 NSCLC, item CC(C)[C@](O)(C(=O)OCC1CC[N+]2([O-])CC[C@@H](O)C12)[C@H](C)O (some centres undefined) ?
output: > 375 µM

input: Short answer please: TGI, HOP-92 NSCLC, entry Cc1ccc(Cl)c(NC(=O)C(=O)C(C(=O)c2ccncc2)C2OC(=O)c3ccccc32)c1 (centres undefined)
output: > 100 µM

input: HOP-92 NSCLC / TGI / COC(=O)CCn1cnc2c(SC)ncnc21 : value?
output: > 100 µM

input: Any idea what TGI came out for C[C@@]12CCC(=O)C=C1CC[C@H]1C2=CC[C@]2(C)C1CC[C@@]2(C)O (some centres undefined) on HOP-92 NSCLC?
output: > 100 µM

* * *

tested on: RPMI-8226 leukemia; assay: NCI tumour cell line growth inhibition, 48 h
quantity.name: TGI

CCOC(=O)/C(=C/c1ccc(C#N)cc1)N(CC)CC: > 100 µM
CC(C)(C)C(=O)C(C(c1ccccc1)N1CCOCC1)N1CCOCC1 (stereo not given): > 100 µM
N.N.NCCCCN.O=C([O-])C1(C(=O)[O-])CCC1.O=C([O-])C1(C(=O)[O-])CCC1.[Pt+4].[Pt+4]: > 100 µM
N#CCCN(c1ccc(-c2nnc(NC(=O)CNNC(=O)CC(=O)Nc3ccccc3)s2)cc1)S(=O)(=O)c1ccccc1: > 100 µM

Let us examine a further case.
input: For RPMI-8226 leukemia, provide TGI of COc1nc2sc3c(c2c(=O)n1CCCSSCCCn1c(OC)nc2sc4c(c2c1=O)CCCC4)CCCC3 please.
output: > 100 µM

* * *

Reported TGI values are given for each entry in this list.
tested on: SN12C renal; test: NCI tumour cell line growth inhibition, 48 h
Where a SMILES comes first, the peptide text is derived from it. [ ]: non-standard residue; d: D form. β3hI = CC[CH](C)[CH](N)CC(=O)O

The following molecules have reported results that may help.
CCC(C)C(CC(=O)N1CCCC1C(=O)NC(C(=O)NC(C(=O)NCC(=O)NC(CC(N)=O)C(=O)NC(C(=O)NC(C(=O)NC(CCCCN)C(N)=O)C(C)CC)C(C)CC)C(C)C)C(C)CC)NC(=O)C(N)C(C)CC (stereo not drawn) (H-I[β3hI]PIVGNIIK-NH2; configuration not given here): > 50 µM
CCOC(=O)/C(=C/c1ccc(C#N)cc1)N(CC)CC: > 100 µM
O=[N+]([O-])c1cc(Cl)cc2cc(Cl)cnc12: > 100 µM
CN(C1=NCCO1)c1cccc2c1CCCC2: > 10 µM

In the following, a different molecule is considered.
input: Provide the documented TGI with SN12C renal as the system for O=c1cnn2c(n1)sc1ccc3ccccc3c12
output: > 100 µM

* * *

system: NCI-H23 lung; experiment: NCI tumour cell line growth inhibition, 48 h
quantity.name: TGI

COc1ccc2[nH]c3c(c2c1)COc1ccccc1C3=O: > 100 µM
CCN(CC)C(=O)COc1ccc(Br)cc1Br: > 100 µM
COC1=CC(c2ccc[nH]2)=N/C1=C\c1[nH]c(C)c(C(=O)CCCCC(=O)Nc2ccccc2)c1C: 4.8 µM
OC1CN2CCS[C@H]2C(O)C1O (some centres undefined): > 100 µM
C=C1C(=O)O[C@H]2[C@H]1CC/C(COC(=O)NCc1c[nH]c3ccc(Cl)cc13)=C\CC[C@@]1(C)O[C@@H]21: 3.39 µM
N#CC(c1cc2c(cc1Br)OCO2)N1CCOCC1 (centres undefined): > 100 µM
CC1CCC2C(C(=O)O[C@H]3C4CCO[C@@H](OC5OC(CO)C(O)C(O)C5O)C4[C@@]4(CO)O[C@@H]34)=CO[C@@H](OC3OC(CO)C(O)C(O)C3O)C12 (some centres undefined): > 10 µM
O=[N+]([O-])c1cc(-[n+]2cc([O-])on2)ccc1F: 33.5 µM
CCOC(=O)c1cn(Cc2ccccc2)c(=O)n1Cc1ccccc1: > 100 µM
O=C(/C=C\c1ccc(Cl)cc1Cl)c1cccs1: 44 µM

input: Value lookup for TGI; key = N#Cc1ccnc(N2C(=O)CC[C@H]2C(=O)N(c2cncc(F)c2)[C@H](C(=O)NC2CC(F)(F)C2)c2ccccc2Cl)c1
output: > 100 µM

input: Any idea what its TGI is? The compound is O=c1[nH]nc(Cc2ccc(Cl)cc2)n1/N=C\CC/C=N\n1c(Cc2ccc(Cl)cc2)n[nH]c1=O
output: > 100 µM

input: Fill blank: measured TGI of the compound O=c1[nH]nc(Cc2ccc(Cl)cc2)n1/N=C\c1ccc(/C=N/n2c(Cc3ccc(Cl)cc3)n[nH]c2=O)cc1 is ____.
output: > 100 µM

input: Tell me the measured TGI of Cc1nc(NC(=O)CCCN2C(=O)c3cccc4cccc(c34)C2=O)sc1C(=O)Nc1cc(C(=O)NCCCN(C)C)n(C)c1 , please.
output: > 100 µM

* * *

system: SK-OV-3 ovarian; assay: NCI tumour cell line growth inhibition, 48 h
quantity.name: TGI (µM)
Please state the figure in µM; there is no need to write the unit.

NS(=O)(=O)c1ccc(CNc2nc(-c3cccs3)nc3ccc(I)cc23)cc1: 52.6
CCOC(=O)c1c(C(F)(F)F)n([O-])c2ccc(OC)cc2[n+]1=O: 20.3
FC(F)(Sc1ccccc1)c1nc2ccccc2o1: 69.4
Clc1c(Cl)c2c(Cl)c(Cl)c1C[P+](c1ccccc1)(c1ccccc1)CC[P+](c1ccccc1)(c1ccccc1)Cc1c(Cl)c(Cl)c(c(Cl)c1Cl)C[P+](c1ccccc1)(c1ccccc1)CC[P+](c1ccccc1)(c1ccccc1)C2: 21.7

input: Provide the documented TGI with SK-OV-3 ovarian as the system for NS(=O)(=O)c1ccc(N2N=C3c4ccccc4CC3C2c2ccc(Cl)cc2)cc1 (configuration not stated)
output: 49.4

input: Recorded TGI for COc1cc(/C=C2\COc3ccc(O)c(O)c3C2=O)cc(OC)c1 with SK-OV-3 ovarian, please?
output: 17.3

input: Recall the recorded TGI for Oc1ccc(Cn2c(-c3ccc(O)c(O)c3)nc3ccccc32)cc1O with SK-OV-3 ovarian and state it.
output: 59.6

* * *

system: A498 renal; experiment: NCI tumour cell line growth inhibition, 48 h
quantity.name: TGI

As a guide, the following entries are already answered.
NCCC(O)(P(=O)(O)O)P(=O)(O)O: > 100 µM
O=C(COc1ccccc1)NS(=O)(=O)c1ccccc1: > 100 µM

input: Request the reported TGI associated with O=c1[nH]nc(Cc2ccc(Cl)cc2)n1/N=C\CC/C=N\n1c(Cc2ccc(Cl)cc2)n[nH]c1=O
output: > 100 µM

input: Value lookup for TGI; key = C[C@H]1[C@H](C)CC[C@]2(C(=O)O)CC[C@]3(C)C(=CC[C@@H]4[C@@]5(C)C/C(=C/c6ccco6)C(=O)C(C)(C)[C@@H]5CC[C@]43C)[C@H]12
output: 33.8 µM

* * *

test system: HL-60(TB) leukemia; assay: NCI tumour cell line growth inhibition, 48 h
# TGI per entry
Answer in µM, number only, no unit symbol.

Look over these answered cases.
S=C(S)N1CCN(c2ccc(Cl)c(Cl)c2)CC1: 44.3
C[C@H]1[C@H](C)CC[C@]2(C(=O)O)CC[C@]3(C)C(=CC[C@@H]4[C@@]5(C)C/C(=C/c6ccco6)C(=O)C(C)(C)[C@@H]5CC[C@]43C)[C@H]12: 7.04
CCCN(CCC)c1ccc(/C=N/NC(=O)c2cccnc2)c(Cl)c1: 32.4
O=[n+]1c2ccccc2n([O-])c2cc(Br)ccc21: 7.56

Then this molecule:
input: Would you kindly share the measured TGI for CCOC(=O)c1c(C(F)(F)F)n([O-])c2ccc(OC)cc2[n+]1=O ?
output: 9.63
